Just for reference, paper PMC12486805 is where these values come from.

- TEST DETAILS: in vitro
- SETUP CONDITIONS: mouse, liver microsomes, pH 7.4
MEASURED PARAMETER: remaining at 1 h (%)
Expressed in %, but write only the number.

Data request, read-out remaining at 1 h, for O=C(O)Cc1ccccc1Nc1c(Cl)cccc1Cl [Diclofenac, reference compound]
58.7

----------
- TARGET ENTITY: CYP2C9 (Homo sapiens)
- Sequence (P11712 whole entry, canonical isoform): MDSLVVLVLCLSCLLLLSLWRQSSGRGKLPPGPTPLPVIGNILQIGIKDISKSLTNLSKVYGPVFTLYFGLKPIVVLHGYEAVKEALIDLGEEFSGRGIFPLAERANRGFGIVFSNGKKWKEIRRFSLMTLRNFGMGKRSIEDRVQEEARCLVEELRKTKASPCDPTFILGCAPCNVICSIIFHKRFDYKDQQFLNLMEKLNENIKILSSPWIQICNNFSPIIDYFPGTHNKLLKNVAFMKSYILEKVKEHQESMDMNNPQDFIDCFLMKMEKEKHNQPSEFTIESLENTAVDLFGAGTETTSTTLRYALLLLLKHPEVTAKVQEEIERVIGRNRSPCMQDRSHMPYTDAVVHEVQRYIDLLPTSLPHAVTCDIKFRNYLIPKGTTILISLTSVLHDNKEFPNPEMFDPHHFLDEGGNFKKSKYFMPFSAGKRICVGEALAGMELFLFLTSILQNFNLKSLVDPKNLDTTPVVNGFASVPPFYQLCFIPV
- TEST DETAILS: CYP inhibition assay, recombinant isoform, fluorescence
- Type: biochemical
- SETUP CONDITIONS: human
Where a SMILES comes first, the peptide text is derived from it. [ ]: non-standard residue; d: D form. The star is where a group is joined. d(aIle) = CC[C@H](C)[C@@H](N)C(=O)O; X1 = CC[C@H](C)CCCCC(=O)*; dDab = NCC[C@@H](N)C(=O)O; Dab = NCC[C@H](N)C(=O)O
MEASURED PARAMETER: inhibition at 25 min, 0.1 µM

Data request, read-out inhibition at 25 min, 0.1 µM, for CC[C@H](C)CCCCC(=O)NCC(=O)N[C@H](CCN)C(=O)NCC(=O)N[C@H](CO)C(=O)N[C@H](Cc1c[nH]c2ccccc12)C(=O)N[C@@H](CO)C(=O)N[C@@H](CCN)C(=O)N[C@H](CCN)C(=O)N[C@H](C(=O)N[C@@H](CCC(=O)O)C(=O)N[C@H](C(=O)N[C@@H](C(=O)N[C@@H](CO)C(=O)O)[C@@H](C)CC)[C@@H](C)CC)[C@@H](C)CC [Tridecaptin M, tridecaptin M] (X1-G[dDab]G[dS][dW]S[Dab][dDab]IEI[d(aIle)]S-OH)
< 0%
